System: Escherichia coli
Assay: in vitro antibacterial evaluation, MIC by broth dilution
Assay type: cell-based
Details: Escherichia coli (ATCC 25922), 18 hours at 35° C.
Numbered stars: 1 amine (or outer) side, 2 acyl side, 3 side chain; on linkers, the order of the positions; unused ones are H or OH. Square brackets hold non-standard residues; d marks the D form. Peptide text beside a SMILES is read from it. * marks the point of attachment. ξ: configuration not given here. X1 = N=C1NCC(C(O)C(N[*:1])C(=O)[*:2])N1C1OC(CO)C(O)C(O)C1O; X6 = N=C1NCC(CC(N[*:1])C(=O)[*:2])N1C1OC(CO)C(O)C(O)C1O; ξEnduracididine(βξ-OH,4'ξ) = N=C1NCC(C(O)C(N)C(=O)O)N1; X2 = OCC1OC(OC2C(CO)OC(*)C(O)C2O)C(O)C(O)C1O; ξPhe(βξ-Me) = CC(c1ccccc1)C(N)C(=O)O
For each record, write down the corresponding MIC Escherichia coli (ATCC 25922).

May I ask what MIC Escherichia coli (ATCC 25922) has been recorded for CC(c1ccc(F)cc1)C1NC(=O)CNC(=O)C(CO)NC(=O)C(C(O)C2CNC(=N)N2C2OC(CO)C(O)C(O)C2O)NC(=O)C(C(O)C2CNC(=N)N2)NC(=O)C(Cc2ccc(OC3OC(CO)C(OC4OC(CO)C(O)C(O)C4O)C(O)C3O)cc2)NC1=O (stereo not drawn) [Example 261a] ? >64 µg/mL

May I ask what MIC Escherichia coli (ATCC 25922) has been recorded for CCC(C)C(=O)OC1C(CO)OC(OC2C(CO)OC(Oc3ccc(CC4NC(=O)C(C(C)c5ccccc5)NC(=O)CNC(=O)C(CO)NC(=O)C(C(O)C5CNC(=N)N5C5OC(CO)C(O)C(O)C5O)NC(=O)C(C(O)C5CNC(=N)N5)NC4=O)cc3)C(O)C2O)C(O)C1O (stereo not drawn) [Example 278c] ? >64 µg/mL

May I ask what MIC Escherichia coli (ATCC 25922) has been recorded for CC(c1ccccc1)C1NC(=O)CNC(=O)C(CO)NC(=O)C(CC2CNC(=N)N2C2OC(CO)C(O)C(O)C2O)NC(=O)C(C(O)C2CNC(=N)N2)NC(=O)C(Cc2ccc(OC3OC(CO)C(OC4OC(CO)C(O)C(O)C4O)C(O)C3O)cc2)NC1=O (stereo not drawn) [Example 284b] (cyclo(G[ξPhe(βξ-Me)]Y(X2)[ξEnduracididine(βξ-OH,4'ξ)][X6]S); configuration not given here) ? >128 µg/mL

May I ask what MIC Escherichia coli (ATCC 25922) has been recorded for CC(C)CCC(=O)OC1C(OC2C(CO)OC(Oc3ccc(CC4NC(=O)C(C(C)c5ccccc5)NC(=O)CNC(=O)C(CO)NC(=O)C(C(O)C5CNC(=N)N5C5OC(CO)C(O)C(O)C5O)NC(=O)C(C(O)C5CNC(=N)N5)NC4=O)cc3)C(O)C2O)OC(CO)C(O)C1O (stereo not drawn) [Example 270a] ? >64 µg/mL

May I ask what MIC Escherichia coli (ATCC 25922) has been recorded for N=C1NCC(C(O)C2NC(=O)C(Cc3ccc(OC4OC(CO)C(OC5OC(CO)C(O)C(O)C5O)C(O)C4O)cc3)NC(=O)C(Cc3ccccc3)NC(=O)CNC(=O)C(CO)NC(=O)C(C(O)C3CNC(=N)N3C3OC(CO)C(O)C(O)C3O)NC2=O)N1 (stereo not drawn) [Example 282] (cyclo(GFY(X2)[ξEnduracididine(βξ-OH,4'ξ)][X1]S); configuration not given here) ? >128 µg/mL

May I ask what MIC Escherichia coli (ATCC 25922) has been recorded for CC(c1ccccc1)C1NC(=O)CNC(=O)C(CO)NC(=O)C(CC2CNC(=N)N2C2OC(CO)C(O)C(O)C2O)NC(=O)C(CC2CNC(=N)N2)NC(=O)C(Cc2ccc(OC3OC(CO)C(OC4OC(CO)C(O)C(O)C4O)C(O)C3O)cc2)NC1=O (stereo not drawn) [Example 277a] ? >128 µg/mL

From: patent US6914045B2
